# test_target: T1, human CD3e/d (human, UniProt P07766 23-126; P04234 22-105)
# T1 construct: Bought soluble protein; also called hCD3e/d; human CD3/ed (Sino CT038-H2508H)
# T1 sequence (P07766 23-126, chain 1 of 2): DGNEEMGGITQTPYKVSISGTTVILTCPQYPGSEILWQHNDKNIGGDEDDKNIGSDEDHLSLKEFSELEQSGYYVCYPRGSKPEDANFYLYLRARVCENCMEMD
# T1 sequence (P04234 22-105, chain 2 of 2): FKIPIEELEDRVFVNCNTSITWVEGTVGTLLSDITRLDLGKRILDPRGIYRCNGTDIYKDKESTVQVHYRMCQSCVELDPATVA
# assay_summary: SPR (Carterra LSA), mAb on chip
assay_endpoint: pKd
pKd is a log-scale quantity: -log10 of the concentration expressed in molar.

Requested field: pKd. Item: mAb 101 (antibody, V domains shown, VH and VL only) VH: QGQLVESGGGVVQPGRSLRLSCAASGFTFRGFGMHWVRQAPGKGLEWVAIIYYDGKNKYYADSVKGRFTISRDNSKNMLYLQMNSLRAEDTAVYYCAKGGGYNWFDPWGQGTLVTVSS VL: DIQMTQSPSSLSASVGDRVTITCRASQSISTYLNWYQQKPGKAPKLLIYSASSLQSGVPSRFSGSGSGTDFTLTISNLQPEDFAIYYCQRSYSPPFTFGPGTKLDIR 8.04

Could you do the same for mAb 196 (antibody, V domains shown, VH and VL only) VH: QEQLVESGGGVVQSGRSLRLSCVASGFKFSGYGMHWVRQAPGKGLEWVAIIYYDGKNKYYADSVKGRFTVSRDNSKNTLYLQMNSLRAEDTAVYYCTRGAGYNWFDSWGQGTLVTVSS VL: EIVMTQSPATLSVSPGERATLSCRASQSVRNNLAWYQQKPGQAPRLLIYGVSTRATAFPARFSGSGSGTEFTLTISSLQSEDFAVYYCQQYNNWPLTFGGGTKVEIK , please? 8.16
